# PROTOCOL: toxicokinetics in 90-day toxicity study
# Assay type: in vivo, rat
# TEST CONTEXT: male, Sprague-Dawley [Crl:CD(SD)], rat, plasma, po, 100 mg/kg, AUC0-24h, Week 13, 100 mg/kg bw, M
MEASUREMENT KIND: AUC(0-t)

Item under review: Cc1noc(C)c1Cn1cc(N2C(=O)CN(Cc3cccc(O)c3)C2=O)cn1 . Reported AUC(0-t)?
925 ng·h/mL

---

# TESTED ON: CYP1A2 (Homo sapiens)
# Sequence (P05177 whole entry): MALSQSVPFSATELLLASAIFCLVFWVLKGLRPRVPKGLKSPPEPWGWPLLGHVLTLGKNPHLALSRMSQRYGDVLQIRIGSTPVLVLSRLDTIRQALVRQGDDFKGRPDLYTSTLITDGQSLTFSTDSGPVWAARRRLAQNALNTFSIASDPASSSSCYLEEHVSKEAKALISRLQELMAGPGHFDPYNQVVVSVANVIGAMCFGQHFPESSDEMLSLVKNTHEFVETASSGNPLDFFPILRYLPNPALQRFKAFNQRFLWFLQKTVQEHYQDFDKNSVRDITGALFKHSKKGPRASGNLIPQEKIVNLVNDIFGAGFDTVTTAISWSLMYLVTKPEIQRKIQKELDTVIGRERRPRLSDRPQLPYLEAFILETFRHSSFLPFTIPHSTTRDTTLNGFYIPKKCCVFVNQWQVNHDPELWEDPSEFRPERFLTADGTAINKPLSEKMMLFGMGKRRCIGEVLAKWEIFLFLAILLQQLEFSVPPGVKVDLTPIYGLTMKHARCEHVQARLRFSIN
# PROTOCOL: CYP inhibition, LC–MS/MS assay in human liver microsomes
# Assay type: in vitro ADME
# TEST CONTEXT: pooled human liver microsomes, probe ethoxyresorufin
MEASUREMENT KIND: inhibition at 10 µM (%)
Give bare numbers, in %.

Field: inhibition at 10 µM (CYP1A2 (Homo sapiens)). Entry: Cc1noc(C)c1Cn1cc(N2C(=O)N(Cc3cccc(O)c3)C(C)(C)C2=O)cn1
16
